Known TGI of a selection of compounds
Test system: RXF 393 renal
Test: NCI tumour cell line growth inhibition, 48 h
All answers are understood in µM, so give the number only.

O=C1c2cc3c(cc2-c2c1c1ccc(Cl)cc1c(=O)n2C[C@H](O)CO)OCO3 ... 0.126
NS(=O)(=O)c1nnc(NC(=S)NC(=O)Nc2ccc(Cl)c(Cl)c2)s1 ... 42.3
Cc1cnc(C(=O)NNc2nc3sc4c(c3c(=O)[nH]2)C(C)CCC4)cn1 (stereo not given) ... 8.2

Challenge: Provide TGI value for the following compound: Cc1ccc(S(=O)(=O)N(CC(O)COc2ccccc2)c2c(F)cccc2F)cc1 (stereo not given)
Response given: 26.1

Challenge: Provide TGI value for the following compound: CC(C)Cc1ccc(C(C)/C=C2\CCC(CN(C)C)C2=O)cc1 (stereo not given)
Response given: 35.1

Challenge: Provide TGI value for the following compound: "Cc1ccc(NC(=O)c2cc(S(=O)(=O)Nc3nnc(-c4ccccc4)c(-c4ccccc4)n3)c(SCc3ccccc3)cc2Cl)cc1"
Response given: 47.2

Challenge: Provide TGI value for the following compound: "COc1ccc(CCCCNCc2cccc(CNCCCCc3ccc(OC)cc3)c2)cc1"
Response given: 3.28

Challenge: Provide TGI value for the following compound: COc1ccc2nc3cc(Cl)ccc3c(NC(C)CCCN(CCCl)CCCl)c2c1 (stereo not given)
Response given: 4.9

###

System: UO-31 renal
Assay: NCI tumour cell line growth inhibition, 48 h
# if value of TGI reaches 20 µM, tag Fulfilled; if it stays below, tag Not fulfilled

These solved cases illustrate the format of a correct answer.
Cc1noc(NC(=O)Nc2ccccc2F)c1C#N ... Not fulfilled
O=C1NC(=O)C2C(=O)NC(=O)C1C2Cc1ccco1 (stereo not given) ... Fulfilled
Cc1cc2nc3c(C#N)c(-c4ccccc4)/c(=C\Nc4ccc(F)cc4)c(=O)n3c2cc1C ... Fulfilled
N#Cc1sc2nc3ccccc3n2c1N ... Fulfilled
C#Cc1ccc(-n2c(/C=C/c3ccc(O)cc3)nc3ncccc3c2=O)cc1 ... Fulfilled
COC(=O)/C=C/c1ccc(OP(=O)(O)O)c(OC)c1 ... Fulfilled

Challenge: Does TGI meet or surpass 20 µM for "Cc1[nH]n(-c2nc3c(c(=O)[nH]2)CCCC3)c(=O)c1CCO" ?
Response given: Fulfilled

Challenge: Does TGI meet or surpass 20 µM for "COCCN(Cc1ccc(F)cc1)c1ccc(CO)c(Cl)c1" ?
Response given: Fulfilled

Challenge: Does TGI meet or surpass 20 µM for "COCCOC1=C(Cl)C(=O)c2ccccc2C1=O" ?
Response given: Not fulfilled

###

Test system: UACC-257 melanoma
Experiment: NCI tumour cell line growth inhibition, 48 h
measurement-label: TGI

Known TGI results, listed for orientation:
COc1cc2nc(Cl)nc(NS(=O)(=O)c3cc4ccccc4s3)c2cc1OC ... > 100 µM
COc1cc(C(=O)/C=C/c2cccc(Nc3ccnc4cc(Cl)ccc34)c2)cc(OC)c1OC ... 3.06 µM
Cc1ccc(S(=O)(=O)N(CC(O)COc2ccccc2)c2c(F)cccc2F)cc1 (stereo not drawn) ... 44.5 µM
C=C(C#N)C(=O)OCC(CC)CC.C=C(C#N)C(=O)OCC(CC)CC.CS(C)=O.CS(C)=O.Nc1c(N=Nc2ccc(-c3ccc(N=Nc4cc(S(=O)(=O)[O-])c5ccccc5c4N)cc3)cc2)cc(S(=O)(=O)[O-])c2ccccc12.[Pt+2] ... 31.8 µM

Challenge: Provide TGI value for the following molecule: COc1cc(C2c3cc4c(cc3OC(NN)C2C)OCO4)cc(OC)c1O (stereo not drawn)
Response given: 93 µM

Challenge: Provide TGI value for the following molecule: C1CSCCSCCCS[C@@H]2CCCCC2SC1 (stereo partly drawn)
Response given: > 100 µM

Challenge: Provide TGI value for the following molecule: "COc1ccc(/C=C2\CCC/C(=C\c3ccc(OC)c(OC)c3)C2=O)cc1OC"
Response given: > 32.5 µM

Challenge: Provide TGI value for the following molecule: [B]C(=O)NC(CC(C)C)C(=O)NCC(=O)NC1c2ccsc2C(=O)C1O (stereo not drawn) (tested in a mixture with another compound)
Response given: > 100 µM

This collection of values is drawn from PubChem BioAssay (NCI).
